Would you kindly list pIC50 for each of these compounds?
biological target: human KSP motor domain (KSP(367H)) (Homo sapiens, UniProt P52732); construct: were used to amplify the motor domain and the neck linker region; made in house; host or cells: E. coli BL21 (DE3), pRSETa; assay: Kinesin ATPase in vitro assay (KSP ATPase, quinaldine red/ammonium molybdate phosphate detection); type: biochemical; conditions: Table 1; kinesin motor domain 20 nM, with microtubules, 1 mM ATP, 23° C.; read-out: KSP ATPase IC50
Sequence (P52732 18-359 limits assumed): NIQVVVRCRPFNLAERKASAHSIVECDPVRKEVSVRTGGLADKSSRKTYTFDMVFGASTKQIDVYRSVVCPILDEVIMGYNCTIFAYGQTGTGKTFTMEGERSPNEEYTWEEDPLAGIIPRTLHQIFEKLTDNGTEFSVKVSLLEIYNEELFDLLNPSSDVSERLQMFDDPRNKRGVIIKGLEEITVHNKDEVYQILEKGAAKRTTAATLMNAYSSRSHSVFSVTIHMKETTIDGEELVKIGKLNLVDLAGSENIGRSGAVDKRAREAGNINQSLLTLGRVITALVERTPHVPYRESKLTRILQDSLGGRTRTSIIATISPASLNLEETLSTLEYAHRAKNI
Keep it numeric: pIC50 is minus log10 of the concentration in mol/L.

Field pIC50 (entry `CCOC(=O)CSc1nc(C23CC4CC(CC(C4)C2)C3)ccc1C#N` ) reads 6.25

Field pIC50 (entry `CCCc1cc(N)c2cc(NC(=O)c3ccc(Oc4ccc(Cl)cc4)cc3)ccc2n1` ) reads 5.49

Field pIC50 (entry `Oc1cccc(CC2(Cc3cccc(O)c3)Cc3ccccc3C2)c1` ) reads 5.23

Field pIC50 (entry `CC(C)(C)c1cccc(NC(=O)Nc2ccc3ccc(O)cc3c2)c1` ) reads 5.72

Field pIC50 (entry `CC(C)(C)c1ccc2[nH]c3c(c2c1)CCCC3=O` ) reads 6.22

Field pIC50 (entry `O=C(Nc1nc2ccccc2s1)C(c1ccccc1)c1ccccc1` ) reads 5.96

Field pIC50 (entry `O=C(Nc1ccc(Br)c(Cl)c1)C(c1ccccc1)c1ccccc1` ) reads 6.16

Field pIC50 (entry Cc1cc2ncn(CC(O)COc3ccc(I)cc3)c2cc1C (stereo not shown) ) reads 5.32

Field pIC50 (entry `O=C(c1cc([N+](=O)[O-])ccc1Cl)N1c2ccccc2Sc2ccccc21` ) reads 6.06

Field pIC50 (entry `C=CCNC(=O)c1cc(-c2ccc(Cl)cc2)n(-c2cc(Cl)ccc2Cl)n1` ) reads 5.30

Field pIC50 (entry O=C(NC(C(=O)c1ccccc1)c1ccccc1)OCc1ccccc1 (stereo not shown) ) reads 5.63

Field pIC50 (entry `Cc1ccc(NC(=O)C(c2ccccc2)c2ccccc2)cc1[N+](=O)[O-]` ) reads 5.41

Field pIC50 (entry `Cc1nn(C(=S)NCc2ccccc2)c2c1[C@H]1[C@@H](C2)C1(C)C` ) reads 5.91

###

biological target: human KSP motor domain (KSP(367H)) (Homo sapiens); construct: were used to amplify the motor domain and the neck linker region; made in house; host or cells: E. coli BL21 (DE3), pRSETa; experiment: Kinesin ATPase in vitro assay (KSP ATPase, quinaldine red/ammonium molybdate phosphate detection); format: biochemical; conditions: KSP ATPase IC50 (nM), Table 1; kinesin motor domain 20 nM, with microtubules, 1 mM ATP, 23° C.
endpoint label: IC50 (nM)
Write it as a number; the unit nM goes unstated.

Field IC50 (entry CCN1C(=O)C(O)(c2ccccc2)c2cc(Br)ccc21 (stereo not shown) ) reads 3920

###

molecular target: human KSP motor domain (KSP(367H)) (Homo sapiens); construct: were used to amplify the motor domain and the neck linker region; made in house; host or cells: E. coli BL21 (DE3), pRSETa; assay: Kinesin ATPase in vitro assay (KSP ATPase, quinaldine red/ammonium molybdate phosphate detection); format: biochemical; details: Table 2; microtubules present, [MT] = 0.5 uM; standard KSP(ADP); read-out: KSP ATPase IC50 (nM) [MT] = 0.5 uM
endpoint label: IC50 (nM)
Write it as a number; the unit nM goes unstated.

Field IC50 (entry CCOC(=O)CSc1nc(C23CC4CC(CC(C4)C2)C3)ccc1C#N [Compound 12] ) reads 1150

Field IC50 (entry CC(C)(C)c1cccc(NC(=O)Nc2ccc3ccc(O)cc3c2)c1 [Compound 6] ) reads 2780

Field IC50 (entry Oc1cccc(CC2(Cc3cccc(O)c3)Cc3ccccc3C2)c1 [Compound 5] ) reads 7740

Field IC50 (entry O=C(Nc1ccc(Br)c(Cl)c1)C(c1ccccc1)c1ccccc1 [Compound 9] ) reads 647

Field IC50 (entry CSc1ccc(C(=O)N2CCCN(CC(=O)Nc3ccc(F)cc3)CC2)s1 [Compound 15] ) reads 8880

Field IC50 (entry Cc1cc2ncn(CC(O)COc3ccc(I)cc3)c2cc1C (stereo not drawn) [Compound 10] ) reads 5040
